- system_name: Transient receptor potential M8 protein (Canis lupus familiaris, UniProt Q1A7N1)
- Sequence (Q1A7N1 whole entry): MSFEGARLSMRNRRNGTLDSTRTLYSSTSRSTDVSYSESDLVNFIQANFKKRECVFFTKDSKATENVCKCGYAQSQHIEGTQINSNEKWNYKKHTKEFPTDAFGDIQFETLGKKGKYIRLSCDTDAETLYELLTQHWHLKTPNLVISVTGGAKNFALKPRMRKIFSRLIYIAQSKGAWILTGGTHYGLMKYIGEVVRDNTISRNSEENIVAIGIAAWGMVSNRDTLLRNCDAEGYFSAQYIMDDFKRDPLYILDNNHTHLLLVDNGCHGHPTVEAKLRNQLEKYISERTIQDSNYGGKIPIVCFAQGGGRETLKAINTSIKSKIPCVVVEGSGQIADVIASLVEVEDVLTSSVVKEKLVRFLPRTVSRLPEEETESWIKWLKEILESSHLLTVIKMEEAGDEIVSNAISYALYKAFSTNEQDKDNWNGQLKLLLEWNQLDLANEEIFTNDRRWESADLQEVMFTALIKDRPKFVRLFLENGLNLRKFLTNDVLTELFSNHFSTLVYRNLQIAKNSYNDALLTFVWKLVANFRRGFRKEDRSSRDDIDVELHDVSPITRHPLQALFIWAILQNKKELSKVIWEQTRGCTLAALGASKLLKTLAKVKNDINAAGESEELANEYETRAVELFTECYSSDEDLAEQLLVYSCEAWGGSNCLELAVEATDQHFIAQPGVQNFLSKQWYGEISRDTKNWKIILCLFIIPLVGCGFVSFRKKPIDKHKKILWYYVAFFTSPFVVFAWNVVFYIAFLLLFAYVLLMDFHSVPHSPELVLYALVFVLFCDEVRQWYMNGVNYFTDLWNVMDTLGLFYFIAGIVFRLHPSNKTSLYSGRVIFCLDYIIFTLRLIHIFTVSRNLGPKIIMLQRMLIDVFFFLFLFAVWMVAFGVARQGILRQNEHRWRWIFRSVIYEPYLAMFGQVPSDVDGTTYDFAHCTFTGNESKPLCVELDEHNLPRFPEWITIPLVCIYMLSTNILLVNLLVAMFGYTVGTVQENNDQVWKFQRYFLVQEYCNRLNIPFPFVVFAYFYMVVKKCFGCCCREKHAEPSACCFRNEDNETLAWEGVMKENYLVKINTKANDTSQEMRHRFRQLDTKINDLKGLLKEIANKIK
- experiment_notes: FLIPR Assay: The functional activity of compounds of the formula (I) was determined by measuring changes in intracellular calcium concentration using a Ca2+-sensitive fluorescent dye. The changes in fluorescent signal were monitored by a fluorescence plate reader, either a FLIPR (Molecular Devices) or FDSS (Hamamatsu). Increases in intracellular Ca2+ concentration were readily detected upon activation with icilin.At 24 hrs prior to assay, HEK293 cells stably expressing canine TRPM8 were seeded in culture medium in black wall, clear-base poly-D-lysine coated 384-well plates (BD Biosciences, NJ, USA) and grown overnight in 5% CO2 at 37° C. On assay day, growth media was removed and cells were loaded with Calcium 3 Dye (Molecular Devices) for 35 min at 37° C., under 5% CO2 and then for 25 min at room temperature and atmosphere.
- Type: cell-based
measured_parameter: IC50 (nM)
// units = nM; emit number, no label

Reported IC50 for `Cc1c(N(Cc2ccc(F)c(C(F)(F)F)c2)S(=O)(=O)c2ccc(C(=O)O)cc2)nc2ccc(Cl)cn12` : what is it?
34.9
